- tgt: OR1/OR7 (Anopheles gambiae, UniProt Q7QCC7+Q8WTE7)
- Construct: Full-length cDNAs for mosquito (Anopheles gambiae) odorant receptor (OR1, OR2, OR7, OR8, OR28); expressed in transfected cells
- Sequence (Q8WTE7 1-417): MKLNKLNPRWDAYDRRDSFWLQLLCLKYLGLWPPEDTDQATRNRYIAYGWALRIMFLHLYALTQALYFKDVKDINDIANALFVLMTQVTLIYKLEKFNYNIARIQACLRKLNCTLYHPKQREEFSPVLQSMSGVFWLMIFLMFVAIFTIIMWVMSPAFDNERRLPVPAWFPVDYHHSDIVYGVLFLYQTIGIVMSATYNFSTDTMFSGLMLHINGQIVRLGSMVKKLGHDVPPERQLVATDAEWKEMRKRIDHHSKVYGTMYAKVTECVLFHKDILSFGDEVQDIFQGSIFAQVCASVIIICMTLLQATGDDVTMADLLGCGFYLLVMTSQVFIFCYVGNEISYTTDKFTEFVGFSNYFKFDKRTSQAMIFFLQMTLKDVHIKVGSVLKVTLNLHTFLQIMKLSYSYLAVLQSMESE
- Sequence (Q7QCC7 1-478): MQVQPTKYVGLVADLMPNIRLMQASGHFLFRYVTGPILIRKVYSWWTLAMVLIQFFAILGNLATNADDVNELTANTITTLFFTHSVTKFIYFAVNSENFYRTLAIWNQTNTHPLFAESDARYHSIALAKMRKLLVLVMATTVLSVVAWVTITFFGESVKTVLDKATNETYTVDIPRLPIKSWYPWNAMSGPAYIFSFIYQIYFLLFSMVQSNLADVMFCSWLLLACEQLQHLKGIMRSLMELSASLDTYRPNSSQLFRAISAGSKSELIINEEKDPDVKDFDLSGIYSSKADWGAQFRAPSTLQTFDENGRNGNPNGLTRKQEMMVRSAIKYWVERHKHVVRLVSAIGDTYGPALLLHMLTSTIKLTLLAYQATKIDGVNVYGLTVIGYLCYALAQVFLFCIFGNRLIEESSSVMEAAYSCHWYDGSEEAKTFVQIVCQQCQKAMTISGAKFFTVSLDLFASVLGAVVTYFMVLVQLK
- experimental details: Ca2+-imaging of stable HEK293T cell line OR1/OR7
- Type: cell-based
Below: a set of entries, each annotated with reported IC50.

Worked cases, answers included:
[Q] Value lookup for IC50; key = CCNc1nc(Cl)nc(NC(C)C)n1
[A] < 2 µM

[Q] Now the same for CCNc1nc(NC(C)C)nc(SC)n1
[A] > 220 µM

[Q] Now the same for CCN(CC)C(=O)c1cccc(C)c1 [DEET, N,N-diethyl-m-toluamide, reference compound]
[A] > 740 µM

Next:
[Q] Value lookup for IC50; key = CSc1nc(NC(C)C)nc(NC(C)C)n1
[A] 2 to 20 µM

###

- tgt: serotonin receptor (5HT3) (Mus musculus, UniProt P23979)
- Construct: Full-length cDNAs for mosquito (Anopheles gambiae) odorant receptor; expressed in transfected cells
- Sequence (P23979 24-489): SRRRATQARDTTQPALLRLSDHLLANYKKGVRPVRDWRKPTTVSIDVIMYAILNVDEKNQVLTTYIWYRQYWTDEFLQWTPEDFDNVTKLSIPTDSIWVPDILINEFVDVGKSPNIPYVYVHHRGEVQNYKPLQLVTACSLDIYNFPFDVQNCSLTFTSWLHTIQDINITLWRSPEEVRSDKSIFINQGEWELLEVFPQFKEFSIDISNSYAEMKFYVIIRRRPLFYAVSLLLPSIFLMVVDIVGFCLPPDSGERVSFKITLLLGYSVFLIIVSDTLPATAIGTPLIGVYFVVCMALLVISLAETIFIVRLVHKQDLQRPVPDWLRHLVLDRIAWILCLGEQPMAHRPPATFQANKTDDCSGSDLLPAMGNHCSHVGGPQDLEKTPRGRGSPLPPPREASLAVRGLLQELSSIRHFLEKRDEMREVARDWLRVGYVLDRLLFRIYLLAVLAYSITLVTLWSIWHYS
- experimental details: Ca2+-imaging of stable Flip-In T-Rex cell line 5HT3
- Type: cell-based
- condition context: compound applied at 4 μM; read-out: Percent Inhibition 5HT3
measurement kind: inhibition at 4 µM

Worked cases, answers included:
[Q] Value lookup for inhibition at 4 µM; key = COc1ccccc1CCC(=O)N1CCC(CCC(=O)Nc2ccccc2)CC1
[A] 26 to 50%

[Q] Now the same for CCc1cc(N2CCCC2)nc(SCc2ccc(C(=O)N3CCOCC3)o2)n1
[A] 26 to 50%

Next:
[Q] Value lookup for inhibition at 4 µM; key = Cc1ccccc1C(=O)N[C@@H]1CCCCC1NC(=O)C1CCN(C(=O)c2cc(C(F)(F)F)cc(C(F)(F)F)c2)CC1 (stereo partly drawn)
[A] 26 to 50%

###

Below: a set of entries, each annotated with reported inhibition at 4 µM.
- tgt: serotonin receptor (5HT3) (Mus musculus)
- Construct: Full-length cDNAs for mosquito (Anopheles gambiae) odorant receptor; expressed in transfected cells
- experimental details: Ca2+-imaging of stable Flip-In T-Rex cell line 5HT3
- Type: cell-based
- condition context: compound applied at 4 μM; read-out: Percent Inhibition 5HT3

Worked cases, answers included:
[Q] Value lookup for inhibition at 4 µM; key = C=CCNC(=O)C(NC(=O)c1cccc(C)c1)C1CCN(C(=O)c2cccc(Br)c2)CC1 (stereo not drawn)
[A] 26 to 50%

[Q] Now the same for Cc1c(C(=O)NCc2ccco2)cnn1-c1ccccc1
[A] < 25%

[Q] Now the same for O=C(c1ccco1)N(Cc1nccn1Cc1ccccc1Cl)CC1CC1
[A] > 75%

[Q] Now the same for COc1ccc(N2CCN(C(=O)C3CC=CCC3C(=O)NC(c3ccccc3)c3ccccn3)CC2)cc1 (stereo not drawn)
[A] 26 to 50%

[Q] Now the same for O=C(c1cccnc1Cl)N1CCOC(COCc2c(Cl)cccc2Cl)C1 (stereo not drawn)
[A] < 25%

[Q] Now the same for C=CCN(Cc1nccn1Cc1ccccc1F)C(=O)c1cccc(F)c1
[A] 51 to 74%

Next:
[Q] Value lookup for inhibition at 4 µM; key = CN(Cc1ccccc1)C(=O)CCC1CCN(C(=O)CCOc2ccccc2)CC1
[A] 51 to 74%

[Q] Now the same for CC(NCc1ccccc1)c1nc2ccccc2c(=O)n1-c1ccc(Cl)cc1 (stereo not drawn)
[A] < 25%

[Q] Now the same for COCCCN(Cc1c(-c2ccccc2)noc1N1CCC(C)CC1)C(=O)c1ccccc1F
[A] 26 to 50%

###

- tgt: mOREG (Mus musculus, UniProt Q920P2)
- Sequence (Q920P2 1-313): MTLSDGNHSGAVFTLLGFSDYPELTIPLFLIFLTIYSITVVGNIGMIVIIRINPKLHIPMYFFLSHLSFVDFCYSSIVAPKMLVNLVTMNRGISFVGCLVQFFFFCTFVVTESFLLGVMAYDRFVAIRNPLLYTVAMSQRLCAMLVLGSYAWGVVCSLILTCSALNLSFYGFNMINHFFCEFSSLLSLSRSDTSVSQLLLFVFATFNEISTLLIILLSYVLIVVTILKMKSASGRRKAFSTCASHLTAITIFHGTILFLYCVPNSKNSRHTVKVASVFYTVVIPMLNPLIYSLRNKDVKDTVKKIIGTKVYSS
- experimental details: Ca2+-imaging, control receptor mOREG
- Assay type: cell-based
- condition context: compound applied at 4 μM; read-out: Percent Inhibition mOREG
- Method: Stable cell lines were cultured in 10 cm dishes, and confluent cells (70-80%) were trypsinized. 10,000 cells/20 μL were transferred into each well of 384-well plates coated with poly-D-lysine, and cultured for 2 days. […] 20 μL of Ca-4 dye was loaded into each well for 1.5 hr at room temperature in the dark, and the dye-loaded plates were subjected to Ca^2+-imaging using a Hamamatsu FDSS6000 real time fluorescence plate reader. […]
Below: a set of entries, each annotated with reported inhibition at 4 µM.

[Q] Value lookup for inhibition at 4 µM; key = C=CCN(Cc1nccn1Cc1ccccc1F)C(=O)c1cccc(F)c1 [RU-0058232]
[A] 26 to 50%

Next:
[Q] Value lookup for inhibition at 4 µM; key = CCOc1ccccc1C(=O)NNC(=O)COc1cc(C)cc(C)c1 [RU-0023245]
[A] 26 to 50%

[Q] Now the same for Fc1ccccc1/C=N/Nc1nc(N2CCCCC2)nc(N2CCOCC2)n1 [RU-0018338]
[A] 26 to 50%

###

- tgt: OR8/OR7 (Anopheles gambiae, UniProt Q7PUT5+Q7QCC7)
- experimental details: Ca2+-imaging of stable HEK293T cell line OR8/OR7
- Format: cell-based
- condition context: HEK-293T; compound applied at 4 μM; read-out: Percent Inhibition OR8 OR7
Below: a set of entries, each annotated with reported inhibition at 4 µM.

[Q] Value lookup for inhibition at 4 µM; key = COC(=O)C(Cc1ccccc1)NC(=O)C1CC1(c1ccccc1)c1ccccc1 (centres unmarked)
[A] 51 to 74%

[Q] Now the same for CCOC(=O)C(c1ccc(OC)c(OC)c1)C1C=CC(NC(=O)c2ccc3c(c2)OCO3)C1 (centres unmarked)
[A] 26 to 50%

[Q] Now the same for C=CCN(Cc1nccn1Cc1ccc(Cl)c(Cl)c1)C(=O)c1ccccc1F
[A] < 25%

###

Below: a set of entries, each annotated with reported inhibition at 4 µM.
- tgt: Or47a/Or83b (Drosophila melanogaster, UniProt P81921+Q9VNB5)
- Construct: Full-length cDNAs for mosquito (Anopheles gambiae) odorant receptor (OR1, OR2, OR7, OR8, OR28), and fly (Drosophila melanogaster) odorant receptor (Or47a, Or83b); expressed in transfected cells
- Sequence (P81921 1-385): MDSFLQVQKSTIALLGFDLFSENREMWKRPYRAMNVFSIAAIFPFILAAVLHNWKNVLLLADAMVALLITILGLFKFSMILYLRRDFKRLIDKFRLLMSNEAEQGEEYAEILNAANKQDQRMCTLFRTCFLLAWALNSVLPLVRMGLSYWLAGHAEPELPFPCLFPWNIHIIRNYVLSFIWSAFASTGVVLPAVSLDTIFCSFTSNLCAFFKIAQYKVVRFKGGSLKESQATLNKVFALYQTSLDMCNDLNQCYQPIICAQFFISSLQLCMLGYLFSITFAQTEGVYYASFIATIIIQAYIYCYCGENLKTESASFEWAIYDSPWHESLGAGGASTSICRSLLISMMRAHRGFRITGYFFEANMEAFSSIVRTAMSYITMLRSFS
- Sequence (Q9VNB5 1-486): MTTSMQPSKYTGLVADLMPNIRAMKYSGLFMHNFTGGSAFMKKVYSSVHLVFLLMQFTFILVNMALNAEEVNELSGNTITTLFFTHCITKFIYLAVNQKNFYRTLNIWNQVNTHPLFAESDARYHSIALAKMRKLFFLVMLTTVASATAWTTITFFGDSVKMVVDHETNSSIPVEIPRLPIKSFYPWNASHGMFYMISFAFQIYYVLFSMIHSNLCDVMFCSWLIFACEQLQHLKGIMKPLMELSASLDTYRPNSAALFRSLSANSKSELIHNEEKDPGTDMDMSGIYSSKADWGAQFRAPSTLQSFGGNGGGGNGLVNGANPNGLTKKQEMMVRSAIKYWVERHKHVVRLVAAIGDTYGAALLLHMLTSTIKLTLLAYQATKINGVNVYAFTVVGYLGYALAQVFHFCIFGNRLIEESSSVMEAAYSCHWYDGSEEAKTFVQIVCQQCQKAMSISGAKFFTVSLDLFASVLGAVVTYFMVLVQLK
- experimental details: Ca2+-imaging of stable Flip-In T-Rex cell line Or47a/Or83b
- Format: cell-based
- condition context: compound applied at 4 μM; read-out: Percent Inhibition OR47a OR83b
- Excerpt: Full-length cDNAs for mosquito (Anopheles gambiae) odorant receptor (OR1, OR2, OR7, OR8, OR28), and fly (Drosophila melanogaster) odorant receptor (Or47a, Or83b), mouse TRP channel (TRPM8), and mouse serotonin receptor (5HT3) were obtained and subcloned into mammalian expression vectors. […] Compounds ([…] in DMSO) were stored in 384-well plates, and last two columns (32 wells total) contained only DMSO. […] Ca^2+ increase was monitored with fluorescence at 525 nm by excitation at 485 nm.

Worked cases, answers included:
[Q] API: value(readout= inhibition at 4 µM, system= Or47a/Or83b (Drosophila melanogaster, UniProt P81921+Q9VNB5), query= CCN(CC)c1onc(-c2ccc(F)cc2)c1CN(CCCOC)C(=O)c1ccc2c(c1)OCO2 )
[A] 51 to 74%

[Q] Now the same for CCOCCCN(CC(=O)N(Cc1ccc2c(c1)OCO2)Cc1sccc1C)C(=O)NC(C)(C)C
[A] 26 to 50%

Next:
[Q] API: value(readout= inhibition at 4 µM, system= Or47a/Or83b (Drosophila melanogaster, UniProt P81921+Q9VNB5), query= COc1ccccc1CC(=O)N1CCOC(COc2ccc(C)cc2)C1 (stereo not drawn) )
[A] 26 to 50%

Reference for the values: patent US20130324522A1
